- system_name: DOR (Homo sapiens)
- Sequence (P41143 whole entry): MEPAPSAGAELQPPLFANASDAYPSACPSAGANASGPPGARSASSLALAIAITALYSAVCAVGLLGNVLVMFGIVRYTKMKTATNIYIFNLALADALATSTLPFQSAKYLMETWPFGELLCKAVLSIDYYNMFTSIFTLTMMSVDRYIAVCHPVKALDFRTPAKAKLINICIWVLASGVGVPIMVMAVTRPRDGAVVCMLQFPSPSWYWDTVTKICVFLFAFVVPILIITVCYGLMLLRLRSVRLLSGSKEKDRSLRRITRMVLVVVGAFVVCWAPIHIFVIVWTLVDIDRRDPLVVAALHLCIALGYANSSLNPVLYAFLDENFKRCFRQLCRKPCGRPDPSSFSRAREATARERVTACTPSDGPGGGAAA
endpoint_label: Ki (nM)

[[record]]
compound = "O=C(Cc1cccs1)N[C@H]1CC[C@@]2(O)[C@H]3Cc4ccc(O)c5c4[C@@]2(CCN3CC2CC2)[C@H]1O5 [Compound 27]"
endpoint_label = "Ki"
quantitative_readout = 6.92

